protocol-text: Inhibitor solubility test, Table V
Assay type: physicochemical
cond: 20% active inhibitor added at 0.5% by volume; observed initially and after 24 hours
endpoint-label: Solubility in kerosene

INSERT INTO assay_data (smiles_code, endpoint_label, test_result) VALUES
  ('CCCCCCCCCCCCSCC[N+](C)(C)C', 'Solubility in kerosene', 'disp'),
  ('CCCCCCCCCCCCCCCCCC[N+](C)(C)CCCS', 'Solubility in kerosene', 'disp'),
  ('CCCCCCCCCCCCSCCC[N+](C)(C)C', 'Solubility in kerosene', 'disp'),
  ('CCCCCCCCSCC[N+](C)(C)C', 'Solubility in kerosene', 'disp');

Notebook: "CCCCCCCCCCCCCCCCCC[N+](C)(C)CCS" , Solubility in kerosene read as sol

Notebook: "CCCCCCCCSCCC[N+](C)(C)C" , Solubility in kerosene read as disp

Notebook: "CCCCCCCCCCCC[N+](C)(C)CCS" , Solubility in kerosene read as disp

Notebook: "CCCCCCCCCCCC[N+](C)(C)CCCS" , Solubility in kerosene read as disp

Notebook: "CCCCCCCCCCCCCCCCCCSCC[N+](C)(C)C" , Solubility in kerosene read as disp

Notebook: "CCCCCCCCCCCCCCCCCCSCCC[N+](C)(C)C" , Solubility in kerosene read as disp

Notebook: "CCCCCCCC[N+](C)(C)CCCS" , Solubility in kerosene read as disp

* * *

protocol-text: Film persistent corrosion wheel test (50-50 3% NaCl brine - Mentor, saturated CO2 + 100 ppm H2S), Table IV
cond: 160° F., film 1 hr, rinse 1 hr, run 24 hrs, single data points
Recorded % Protection @ 10,000 ppm by entry
Only the number, expressed in %, is required.

Below, each entry is followed by its recorded % Protection @ 10,000 ppm result.
INSERT INTO assay_data (smiles_code, endpoint_label, test_result) VALUES
  ('CCCCCCCC[N+](C)(C)CCCS', '% Protection @ 10,000 ppm', 14),
  ('CCCCCCCCCCCCCCCCCCSCC[N+](C)(C)C', '% Protection @ 10,000 ppm', 17),
  ('CCCCCCCCCCCCSCCC[N+](C)(C)C', '% Protection @ 10,000 ppm', 20);

Notebook: "CCCCCCCCSCC[N+](C)(C)C" , % Protection @ 10,000 ppm read as 11

Notebook: "CCCCCCCCCCCCSCC[N+](C)(C)C" , % Protection @ 10,000 ppm read as 19

* * *

protocol-text: Corrosion wheel test, sweet-sour, all water system (3% NaCl brine, saturated CO2 + 100 ppm H2S), Table I
cond: 16 ppm, 160° F., 24 hours, 3% NaCl brine only
Field 'label' (enum: Yes / No). Set to Yes when % Protection @ 16 ppm is strictly under 60%; else No.

Would you please look over these solved cases?
INSERT INTO measurements (molecule, assigned_category) VALUES
  ('CCCCCCCC[N+](C)(C)CCCS [Compound 4]', 'No'),
  ('CCCCCCCCCCCCCCCCCC[N+](C)(C)CCS [Compound 3]', 'Yes'),
  ('CCCCCCCCCCCCSCCC[N+](C)(C)C [Compound 11]', 'Yes'),
  ('CCCCCCCCSCCC[N+](C)(C)C [Compound 10]', 'Yes');

Lab note: confirm whether the reported % Protection @ 16 ppm for this molecule is below 60%, equality not counting. molecule: CCCCCCCCCCCC[N+](C)(C)CCCS [Compound 5] No

Lab note: confirm whether the reported % Protection @ 16 ppm for this molecule is below 60%, equality not counting. molecule: CCCCCCCCCCCCSCC[N+](C)(C)C [Compound 8] Yes
